- assay.name: chemical genetic growth profiling, strain panel (AID 1159580);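 note: tested at 20 µM; growth read once vehicle control cultures reached saturation at 30 °C; 1 = growth at the plate median or of vehicle wells; lower values mean less growth of the strain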
- measurement.setup: S. cerevisiae deletion strains, growth OD, locus YLR268W, strain sec22
In all, about 5,500 compounds went through this assay and about 2,000 (36%) were called active. Not shown: some 18% with an inconclusive outcome. Cut-off read from the data, not from the text of the source: active = normalized growth mostly below about 0.91 (no sharp cut-off); inconclusive = no clear call, values can overlap the other calls; inactive = mostly above about 0.92. Some of the results follow.
Classes used: class 1 for active, class 0 for inactive

# molecule, label.value
measured = [
    ("CC(=O)[C@H]1CCC2C3CCC4=CC(=O)CC[C@]4(C)C3CC[C@@]21C (stereo not given in full)", "class 1"),
    ("COc1ccc2c(C)cc(=O)oc2c1", "class 0"),
    ("COc1cc2c(cc1OC)[C@@H]1C(=O)c3ccc4c(c3O[C@@H]1CO2)C=CC(C)(C)O4", "class 0"),
    ("O=C(CC[N+](=O)[O-])OC[C@H]1O[C@@H](O)[C@H](OC(=O)CC[N+](=O)[O-])[C@@H](OC(=O)CC[N+](=O)[O-])[C@@H]1OC(=O)CC[N+](=O)[O-]", "class 0"),
    ("Cc1cc(O)c(C=O)c(O)c1C(=O)O", "class 0"),
    ("CCS(=O)CCSP(=O)(OC)OC (stereo not given)", "class 0"),
    ("CCN(CC)CCNC(=O)c1cc(Br)c(N)cc1OC", "class 0"),
    ("COC1=CC(=O)C[C@@H](C)[C@]12Oc1c(Cl)c(OC)cc(OC)c1C2=O", "class 0"),
    ("COc1cc(NC(C)CCCN)c2ncccc2c1 (stereo not given)", "class 0"),
    ("CC(C)CC(NC(=O)C(Cc1ccccc1)NC(=O)CNC(=O)CNC(=O)C(N)Cc1ccc(O)cc1)C(=O)O (stereo not given)", "class 0"),
    ("COc1ccc2c(c1)OCc1c-2oc2cc(OC)ccc12", "class 0"),
    ("COc1cc2c(cc1OC)[C@@H]1C(=O)c3ccc(OC)c(CC=C(C)C)c3O[C@@H]1CO2", "class 0"),
    ("COc1cc2c(cc1OC)[C@@H]1C(=O)c3ccc(O)c(CC=C(C)C)c3O[C@@H]1CO2", "class 0"),
    ("CC1/C(=N\\O)C[C@@H]2C[C@H]1C2(C)C (stereo not given in full)", "class 0"),
    ("CC1CC2C3CC(F)C4=CC(=O)C=CC4(C)C3(F)C(O)CC2(C)C1(O)C(=O)CO (stereo not given)", "class 0"),
    ("COc1cc2c(cc1OC)C1C(=O)c3ccc4c(c3OC1CO2)CCC(C)(C)O4 (stereo not given)", "class 0"),
    ("C[C@]12CCC(=O)C=C1CCC1C2CC[C@@]2(C)C1CC[C@@H]2O (stereo not given in full)", "class 0"),
    ("COc1cc2c(cc1OC)[C@@H]1C(=O)c3ccc4oc(C(C)C)cc4c3O[C@@H]1CO2", "class 0"),
    ("Cc1cc(O)c(C)c(O)c1C(=O)O", "class 0"),
    ("C=C1C2CC[C@H]3[C@]4(C)C[C@H](OC5OC(CO)C(OS(=O)(=O)O)C(OS(=O)(=O)O)C5OC(=O)CC(C)C)C[C@@H](C(=O)O)[C@H]4CC[C@]3(C2)[C@H]1O (stereo not given in full)", "class 0"),
]

###

Known normalized growth of a selection of compounds
- assay.name: chemical genetic growth profiling, strain panel (AID 1159580)
- measurement.setup: S. cerevisiae deletion strains, growth OD, locus YGL253W, strain hxk2, hits give low values
Out of some 5,500 compounds screened, about 2,000 (36%) were called active. Not shown: some 18% with an inconclusive outcome. Some of the results follow.

# compound, normalized growth
records = [
    ("CC(=O)N[C@@H](CC(C)C)C(=O)O", 0.986),
    ("COc1cc(NS(=O)(=O)c2ccc(N)cc2)nc(OC)n1", 0.977),
    ("NC(=O)C(c1ccccc1)(c1ccccc1)C1CCN(CCc2ccc3c(c2)CCO3)C1 (configuration not stated)", 1.02),
    ("CCOC(=O)c1c(C)c(Cl)c(O)c(Cl)c1O", 0.254),
    ("COc1ccc2c(c1OC)C(=O)O[C@@H]2[C@H]1c2cc3c(cc2CCN1C)OCO3", 0.999),
    ("CN1CCC(=C2c3ccccc3CCc3sccc32)CC1", 0.977),
    ("COCCc1ccc(OCC(O)CNC(C)C)cc1 (configuration not stated)", 0.983),
    ("COc1ccc2c(c1OC)C(=O)O[C@H]2[C@H]1c2cc3c(cc2CCN1C)OCO3", 0.994),
    ("c1cncc(C2CCCCN2)c1 (configuration not stated)", 0.986),
    ("CN1CCC(=C2c3ccccc3Sc3ccccc32)CC1", 1.01),
    ("CN1CCC(=C2c3ccccc3CC(=O)c3sccc32)CC1", 1),
    ("Cc1cc(O)c(C=O)c(O)c1C(=O)O", 1),
]

###

Known normalized growth of a selection of molecules
- assay.name: chemical genetic growth profiling, strain panel (AID 1159580);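 note: tested at 20 µM; growth read once vehicle control cultures reached saturation at 30 °C; 1 = growth at the plate median or of vehicle wells; lower values mean less growth of the strain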
- measurement.setup: S. cerevisiae deletion strains, growth OD, locus YDL192W, strain arf1, hits give low values
Among all 5,500 compounds or so, about 2,000 (36%) were called active. Another 18% or so got no clear call; they are omitted. This is one part of the list.
outcome.measure: normalized growth

# molecule, measured.value
records = [
    ("CCOC(=O)C(=O)C1(C(=O)OCC)Oc2cc(OC)cc(OC)c2C(=O)C1c1ccccc1 (stereo not given)", 0.945),
    ("COc1ccc2c(c1OC)C(=O)O[C@H]2[C@H]1c2cc3c(cc2CCN1C)OCO3", 1.01),
    ("O=C(O)c1c2ccccc2cc2ccccc12", 0.98),
    ("CC(=O)NC1SCCC1=O (stereo not given)", 1.01),
    ("COc1ccc2c(c1OC)C(=O)O[C@@H]2[C@H]1c2cc3c(cc2CCN1C)OCO3", 1.02),
    ("C[C@]12CC(=O)C3C(CC[C@@H]4C[C@H](O)CC[C@]34C)C1CC[C@]2(O)C(=O)CO (stereo not given in full)", 1),
    ("CC1=C(/C=C/C(C)=C/C=C/C(C)=C/C=C/C=C(C)/C=C/C=C(C)/C=C/C23OC2(C)CC(O)CC3(C)C)C(C)(C)CC(O)C1 (stereo not given)", 1),
    ("O=C(O)c1cc2ccccc2[nH]1", 1.02),
    ("C[C@H]1OC(n2cc(F)c(=O)[nH]c2=O)C(O)[C@@H]1O (stereo not given in full)", 0.97),
    ("CCCCCCCCCCCCCCCC(=O)OC/C=C(C)/C=C/C=C(C)/C=C/C1=C(C)CCCC1(C)C", 0.994),
]

###

- assay.name: chemical genetic growth profiling, strain panel (AID 1159580);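 note: tested at 20 µM; growth read once vehicle control cultures reached saturation at 30 °C; 1 = growth at the plate median or of vehicle wells; lower values mean less growth of the strain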
- measurement.setup: S. cerevisiae deletion strains, growth OD, locus YGL078C, strain dbp3
The campaign covered roughly 5,500 compounds. About 2,000 (36%) were called active. Inconclusive results (about 18%) are left out. Cut-off read from the data, not from the text of the source: active = normalized growth mostly below about 0.91 (no sharp cut-off); inconclusive = no clear call, values can overlap the other calls; inactive = mostly above about 0.92. The list shows a part of the results.
Classes used: YES = active, NO = inactive

# compound, label.value
measured = [
    ("CC(C(=O)O)c1ccc(-c2ccccc2)c(F)c1 (stereo unspecified)", "YES"),
    ("O=C(O)c1c2ccccc2cc2ccccc12", "NO"),
    ("CC1=C(/C=C/C(C)=C/C=C/C(C)=C/C=C/C=C(C)/C=C/C=C(C)/C=C/C2=C(C)C(=O)C(O)CC2(C)C)C(C)(C)CC(O)C1=O (stereo unspecified)", "NO"),
    ("CC(C(=O)O)c1cccc(Oc2ccccc2)c1 (stereo unspecified)", "NO"),
    ("CCOC(=O)[C@H](CCc1ccccc1)N[C@H]1CCc2ccccc2N(CC(=O)O)C1=O", "NO"),
    ("CN(C)CC/C=C1\\c2ccccc2Sc2ccc(Cl)cc21", "NO"),
    ("CC(=O)OC(C)(C)[C@@H]1Cc2cc3ccc(=O)oc3cc2O1", "NO"),
    ("COc1ccc2cc([C@H](C)C(=O)O)ccc2c1", "NO"),
    ("CC(C)(OC(=O)c1ccccc1)[C@@H]1Cc2cc3ccc(=O)oc3cc2O1", "NO"),
    ("O=C(O)c1cc2ccccc2[nH]1", "NO"),
    ("O=C(O)c1cc2ccccc2c(Cc2c(O)c(C(=O)O)cc3ccccc23)c1O", "NO"),
]

###

- assay.name: chemical genetic growth profiling, strain panel (AID 1159580);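 note: tested at 20 µM; growth read once vehicle control cultures reached saturation at 30 °C; 1 = growth at the plate median or of vehicle wells; lower values mean less growth of the strain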
- measurement.setup: S. cerevisiae deletion strains, growth OD, locus YML016C, strain PPZ1, hits give low values
About 2,000 (36%) of roughly 5,500 compounds were called active. About 18% were inconclusive and are not listed. Some of the results follow.

# compound, normalized growth
records = [
    ("COc1cc2c(cc1OC)C1C(=O)c3ccc4c(c3OC1CO2)CCC(C)(C)O4 (stereo not given)", 1),
    ("CC(C[N+](C)(C)C)OC(N)=O (stereo not given)", 0.995),
    ("CC(=O)OC(C)(C)[C@@H]1Cc2cc3ccc(=O)oc3cc2O1", 0.999),
    ("CC(C)(OC(=O)c1ccccc1)[C@@H]1Cc2cc3ccc(=O)oc3cc2O1", 0.982),
    ("COc1cc2c(cc1OC)C1C(=O)c3c(cc4c(c3O)C=CC(C)(C)O4)OC1CO2 (stereo not given)", 0.996),
    ("CCN(CC)CCNC(=O)c1cc(Br)c(N)cc1OC", 0.994),
    ("CS(=O)(=O)c1ccc(C2=C(c3ccccc3)C(=O)OC2)cc1", 1),
    ("COc1cc2c(cc1OC)[C@@H]1C(=O)c3ccc4c(c3O[C@@H]1CO2)C=CC(C)(C)O4", 0.981),
    ("COc1cc(NC(C)CCCN)c2ncccc2c1 (stereo not given)", 1.01),
    ("CC(=O)OCC[N+](C)(C)C", 0.993),
]
